// data source = patent US20170253633A1

target: T1, HLA-A*02:01 (human); assay: UV-ligand exchange + anti-b2m ELISA; ++++ = peptide exchange yield >75%
T1 construct: MHC monomer first loaded with a UV-sensitive peptide, which is cleaved by UV and exchanged with the test peptide; captured on streptavidin plates; also called peptide-receptive MHC molecules

binder | peptide exchange yield
SLLRVGWSV (genes: BSCL2, HNRNPUL2) | > 75%
SMFGAGLTV (gene: ATP6V0B) | > 75%
FLIESKLLSL (gene: DRC1) | > 75%
